Numbers sourced from patent US10077243B2.

- TEST TARGET: human mGluR5 (Homo sapiens, UniProt P41594)
- Construct: expressed in transfected cells; host or cells: HEK293 cells stably expressing rat GLAST (EAAT1), stably transfected with pcDNAzeo3.1 carrying synthetic human mGluR5 DNA; zeocin-selected single clones
- Sequence (P41594 21-1212): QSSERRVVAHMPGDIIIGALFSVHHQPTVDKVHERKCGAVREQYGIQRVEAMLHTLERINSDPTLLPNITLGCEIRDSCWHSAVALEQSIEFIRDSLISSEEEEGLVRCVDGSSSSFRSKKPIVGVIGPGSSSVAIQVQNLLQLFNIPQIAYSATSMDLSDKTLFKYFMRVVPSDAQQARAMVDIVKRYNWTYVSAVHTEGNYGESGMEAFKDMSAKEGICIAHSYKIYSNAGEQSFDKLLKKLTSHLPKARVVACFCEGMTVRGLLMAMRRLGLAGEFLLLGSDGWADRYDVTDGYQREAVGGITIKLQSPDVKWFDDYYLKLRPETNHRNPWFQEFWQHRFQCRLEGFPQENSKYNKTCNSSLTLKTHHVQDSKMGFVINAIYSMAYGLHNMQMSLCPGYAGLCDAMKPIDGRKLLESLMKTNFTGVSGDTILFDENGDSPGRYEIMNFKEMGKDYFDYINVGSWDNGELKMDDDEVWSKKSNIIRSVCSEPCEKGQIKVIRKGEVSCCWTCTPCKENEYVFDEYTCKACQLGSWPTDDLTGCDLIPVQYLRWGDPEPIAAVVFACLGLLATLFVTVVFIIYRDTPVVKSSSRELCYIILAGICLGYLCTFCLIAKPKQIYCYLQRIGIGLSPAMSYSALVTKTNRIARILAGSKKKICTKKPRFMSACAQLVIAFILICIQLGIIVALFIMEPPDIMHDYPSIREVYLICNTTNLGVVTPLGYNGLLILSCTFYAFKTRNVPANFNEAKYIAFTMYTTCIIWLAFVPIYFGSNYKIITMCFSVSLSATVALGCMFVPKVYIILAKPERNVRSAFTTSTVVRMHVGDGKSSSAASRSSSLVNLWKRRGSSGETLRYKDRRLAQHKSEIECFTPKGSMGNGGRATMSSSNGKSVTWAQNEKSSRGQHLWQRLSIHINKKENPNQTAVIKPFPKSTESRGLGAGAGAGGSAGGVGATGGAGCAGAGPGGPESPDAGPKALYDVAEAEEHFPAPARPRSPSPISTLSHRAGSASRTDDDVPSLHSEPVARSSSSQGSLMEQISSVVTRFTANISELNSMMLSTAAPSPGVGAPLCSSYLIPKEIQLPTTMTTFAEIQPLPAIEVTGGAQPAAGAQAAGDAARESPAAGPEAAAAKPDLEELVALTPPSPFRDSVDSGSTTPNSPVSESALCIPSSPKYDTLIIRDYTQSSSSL
- EXPERIMENT NOTES: In vitro cell-based FLIPR calcium assay for positive modulation of the activation of mGluR5 by glutamate (PAM EC50)
- CONDITION PARAMETERS: HEK293/GLAST cells expressing recombinant human mGluR5; FLIPR calcium signal; glutamate added at its EC20; read-out: mGluR5 PAM EC50
For each of the molecules below, state its EC50.

# batch: return EC50 for each of the 4 molecules below
1. O=c1c2ccc(C#Cc3ccccn3)cc2nc2n1CC(CO)CC2 (stereo not drawn) [Example 4.32]
2. O=c1c2c(nc3cc(C#Cc4ccccc4)ccn13)CCCCCC2 [Example 17.1]
3. Cc1cnc(NC(=O)c2ccn3c(=O)c4c(nc3c2)CCCCC4)s1 [Example 28.3]
4. O=c1c2ncc(C#Cc3cccc(F)c3)cc2nc2n1CCCCC2 [Example 11.7]

100 to 300 nM
< 10 nM
30 to 100 nM
< 10 nM
